Taken from BindingDB's records for doi:10.1021/jm060166w.

- TEST_TARGET: 5-hydroxytryptamine receptor 1A (Sus scrofa)
- METHOD_DESCRIPTION: Displacement of [3H]8-OH-DPAT from 5HT1A receptor in porcine cortical membrane
ENDPOINT_LABEL: Ki

Ask: Ki lookup needed for Fc1ccc(N2CCN(Cc3cn4ccccc4n3)CC2)cc1 , thanks.
Result: 3.6 µM
